Inhibitory Effects on Various Pulmonary Infections listing for selected substances.
System: Mycoplasma pneumoniae
Method Description: Mouse pneumonia model, mycoplasma
Assay type: in vivo, BALB/C mice
Set-up: concentration or dose not given beside the values
Condition Info: mean ± SD
Protocol: The mouse pneumonia model was successfully established by the nose-drop method. To build the mouse pneumonia model, BALB/C mice with a body mass of 16-22 g were selected and anesthetized pneumonia chain was prepared after anesthesia with ether on day 0, day 1, and day 2. Staphylococcal fluid, adenovirus concentrate, Mycoplasma pneumoniae, Chlamydia pneumoniae, protozoa, and pneumonia fungi were slowly dripped into the nasal cavity of the mice, so that they enter the tracheobronchial. […]
Value expressed in %; do not type the unit.

Sample records with Inhibitory Effects on Various Pulmonary Infections:
INSERT INTO results (substance, units_of_measure, measurement) VALUES
  ('Ile-Val-Arg-Arg-Ala-Asp-Arg-Ala-Ala-Val-Pro-Gly-Gly-Gly-Gly-Pro-(D-Pyr)-(D-Cys)-Bip-Arg-Gly-Glu-Gly-Gly-Gly-Gly-Arg-Gly-Asp [Polypeptide II]', '%', 39.16),
  ('Arg-Gly-Asp-Gly-Gly-Gly-Gly-Pro-(D-Pyr)-(D-Cys)-Bip-Arg-Gly-Glu-Gly-Gly-Gly-Gly-Ile-Val-Arg-Arg-Ala-Asp-Arg-Ala-Ala-Val-Pro [Polypeptide III]', '%', 42.44);

We now examine a further substance.
Please give the measured Inhibitory Effects on Various Pulmonary Infections for this substance: Arg-Gly-Asp-Gly-Gly-Gly-Gly-Ile-Val-Arg-Arg-Ala-Asp-Arg-Ala-Ala-Val-Pro-Gly-Gly-Gly-Gly-Pro-(D-Pyr)-(D-Cys)-Bip-Arg-Gly-Glu [Polypeptide IV] 40.35
